- Tested on: RARg:RXRa (NR concentration 270 nM, RXRa partner concentration 90 nM)
- measurement description: PBM binding z-score (relative to random genomic background probes); higher = stronger binding; sequences stand for … in GC…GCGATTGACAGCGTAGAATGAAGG
So I've got a bunch of sequences here, and I need their PBM binding z-score values.

As a guide, the following entries are already answered.
{"seq string": "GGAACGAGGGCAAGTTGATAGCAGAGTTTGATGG", "result": 1.68}
{"seq string": "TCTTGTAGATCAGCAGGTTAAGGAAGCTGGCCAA", "result": 0.132}
{"seq string": "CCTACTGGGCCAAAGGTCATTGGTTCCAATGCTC", "result": 5.8}

Give PBM binding z-score for each of the items listed below.
1. TTACCAAGTTGAAGGTCGTTGATCCCTCTGTAGA
2. ACTATTAGTTGAGTCGAGGGCAACCGATAGGTTG
3. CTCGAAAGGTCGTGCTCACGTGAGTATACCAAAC
4. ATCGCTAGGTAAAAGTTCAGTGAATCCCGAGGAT
5. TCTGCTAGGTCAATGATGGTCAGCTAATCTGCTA
6. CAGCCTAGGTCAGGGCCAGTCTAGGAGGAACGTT

[0.339, 0.788, 4.15, 1.37, 3.45, 2.83]

Give PBM binding z-score for each of the items listed below.
1. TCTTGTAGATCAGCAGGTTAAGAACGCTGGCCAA
2. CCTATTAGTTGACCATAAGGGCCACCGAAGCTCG

1. -0.0606
2. 0.432

Give PBM binding z-score for each of the items listed below.
1. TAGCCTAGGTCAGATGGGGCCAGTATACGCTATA
2. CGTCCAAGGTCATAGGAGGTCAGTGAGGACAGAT
3. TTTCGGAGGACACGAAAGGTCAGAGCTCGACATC
4. GCATATAGGTAATATAAGGTGAAAGTCCGATTGT

[2.98, 6.73, 4.88, 0.463]

Give PBM binding z-score for each of the items listed below.
1. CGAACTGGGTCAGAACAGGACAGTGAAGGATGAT
2. CGAACAAGGGCATGAGTTGATAGCAAATGCCGAT

1. 1.84
2. 1.12

----------
- Tested on: RXRa DBDmut IVT, anti-RXR (DBD mutation: RXRa K156A/R161A, NR concentration 90 nM)
- measurement description: PBM binding z-score (relative to random genomic background probes); higher = stronger binding; sequences stand for … in GC…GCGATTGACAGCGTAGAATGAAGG
condition met means recorded PBM binding z-score is 0.4 or above; condition not met means it is below 0.4.

Reference set, count: 4
{"seq string": "AGTCAAAGTTCACTAAGTAACGTAAGATTCAGCT", "assigned category": "condition met"}
{"seq string": "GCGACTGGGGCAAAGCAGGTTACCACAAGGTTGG", "assigned category": "condition not met"}
{"seq string": "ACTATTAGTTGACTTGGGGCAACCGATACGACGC", "assigned category": "condition met"}
{"seq string": "CAAACTAGGTCACCGGAAGTTCAAAGTCCGCATG", "assigned category": "condition met"}

Exam item: decide whether the reported PBM binding z-score for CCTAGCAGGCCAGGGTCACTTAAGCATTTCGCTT is at least 0.4.
condition not met

Next sequence: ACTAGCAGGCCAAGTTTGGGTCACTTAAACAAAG
condition not met

Next sequence: GCTTGTAGCTCAAGGTTAAGAAAGACTAAGCTAA
condition not met

Next sequence: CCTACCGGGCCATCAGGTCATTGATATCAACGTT
condition not met

Next sequence: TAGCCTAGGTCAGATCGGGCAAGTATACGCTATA
condition not met

Next sequence: TCATATAGGTAATACAGGTGAAAGGCGGCATCTA
condition met

Numbers sourced from the supplement of paper PMC6555819.
